Reported melting point values for the following molecules.

Solved entries:
[[record]]
molecule = "COc1nc(SC)c(C#N)c(-c2ccccc2)c1C#N"
readout_kind = "melting point"
value_reported = "168 to 170 °C"

[[record]]
molecule = "COc1nc(O)c(C#N)c(-c2ccccc2)c1C#N"
readout_kind = "melting point"
value_reported = "255 to 257 °C (dec.)"

[[record]]
molecule = "CS(=O)(=O)c1nc(N)c(C#N)c(-c2cccs2)c1C#N"
readout_kind = "melting point"
value_reported = "233 to 235 °C"

[[record]]
molecule = "COc1nc(N(C(C)=O)C(C)=O)c(C#N)c(-c2ccccc2F)c1C#N"
readout_kind = "melting point"
value_reported = "137 to 138 °C"

[[record]]
molecule = "Cl.Cl.N#Cc1c(N)nc(Sc2cccnc2)c(C#N)c1-c1cccc(N)c1"
readout_kind = "melting point"
value_reported = "285 to 288 °C (dec.)"

[[record]]
molecule = "COc1nc(NCCO)c(C#N)c(-c2ccccc2)c1C#N"
readout_kind = "melting point"
value_reported = "153 to 155 °C"

[[record]]
molecule = "N#Cc1c(N)nc(-n2ccnc2)c(C#N)c1-c1ccccc1"
readout_kind = "melting point"
value_reported = "256 to 258 °C"

[[record]]
molecule = "CSc1nc(Br)c(C#N)c(-c2cccs2)c1C#N"
readout_kind = "melting point"
value_reported = "169 to 171 °C"

[[record]]
molecule = "CSc1nc(N)c(C#N)c(-c2ccc(C(=O)O)cc2)c1C#N"
readout_kind = "melting point"
value_reported = "288 to 290 °C"

[[record]]
molecule = "CN(C)c1cccc(-c2c(C#N)c(N)nc(SCc3cccnc3)c2C#N)c1.Cl.Cl"
readout_kind = "melting point"
value_reported = "243 to 245 °C"


[ask] In one line, give reported melting point of the entry COc1nc(N)c(C#N)c(-c2ccc(CN)cc2)c1C#N.Cl .
[reply] > 300 °C

[ask] In one line, give reported melting point of the entry COc1nc(NC(=O)c2cccs2)c(C#N)c(-c2ccccc2F)c1C#N .
[reply] 208 to 209 °C

---

Structures can show the parent of a compound that is named as a salt.
Reported melting point values for the following compounds.

[[record]]
compound = "CCOc1nc(N)c(C#N)c(-c2ccccc2)c1C#N [Example 179]"
readout_kind = "melting point"
value_reported = "233 to 234 °C"

[[record]]
compound = "COc1nc(NC(C)=O)c(C#N)c(-c2cccs2)c1C#N [Example 19]"
readout_kind = "melting point"
value_reported = "230 to 233 °C"

[[record]]
compound = "COCC(=O)Nc1nc(OC)c(C#N)c(-c2c(F)cccc2F)c1C#N [Example 62]"
readout_kind = "melting point"
value_reported = "181 to 182 °C"

[[record]]
compound = "COc1nc(NC(=O)c2ccccn2)c(C#N)c(-c2ccccc2F)c1C#N [Example 412]"
readout_kind = "melting point"
value_reported = "219 to 220 °C"


[ask] In one line, give reported melting point of the entry N#Cc1c(N)nc(Cl)c(C#N)c1-c1cccs1 [Example 372] .
[reply] 301 °C

[ask] In one line, give reported melting point of the entry N#Cc1c(N)nc(OCc2ccccc2)c(C#N)c1-c1cccs1 [Example 378] .
[reply] 186 to 187 °C

[ask] In one line, give reported melting point of the entry COc1nc(N)c(C#N)c(CC2CCCCC2)c1C#N [Example 150] .
[reply] 139 to 140 °C

[ask] In one line, give reported melting point of the entry CSc1nc(N)c(C#N)c(-c2ccccc2)c1C#N [Example 76] .
[reply] 297 °C

[ask] In one line, give reported melting point of the entry CSc1nc(N)c(C#N)c(-c2c[nH]cn2)c1C#N (as salt: HCl) (hydrate or solvate) [Example 82] .
[reply] 272 to 273 °C (dec.)

---

Reported melting point values for the following compounds.
Where a name gives a salt, the structure may show the parent alone.

[[record]]
compound = "COc1nc(N)c(C#N)c(-c2ccc3cccnc3c2)c1C#N (as salt: HCl) [Example 172]"
value_reported = "245 to 254 °C (dec.)"

[[record]]
compound = "COCC(=O)Nc1nc(OCC(F)F)c(C#N)c(-c2ccccc2F)c1C#N (hydrate or solvate) [Example 61]"
value_reported = "108 to 109 °C"


[ask] In one line, give reported melting point of the entry COc1nc(N)c(C#N)c(-c2ccc(N)cc2)c1C#N.Cl.O (hydrate or solvate) [Example 20] .
[reply] > 300 °C

[ask] In one line, give reported melting point of the entry CCC(=O)Nc1nc(OC)c(C#N)c(-c2ccccc2F)c1C#N [Example 401] .
[reply] 168 to 169 °C

---

- Tested on: rhythmic bladder contraction in rats under urethane anesthesia
- METHOD: Rhythmic contraction of the bladder in rats under urethane anesthesia
- Type: in vivo, rat
- CONDITION_NOTES: Rattus norvegicus, intraduodenal, urethane-anesthetized SD female rats, i.d., up to 2 hours, read-out: Inhibition of frequency of the bladder contraction max % inhibition
Counter-ions that a name gives are not always drawn.
READOUT_KIND: inhibition in vivo at 10 mg/kg
Answers without a unit are incomplete; give the number and then its unit.

Solved entries:
[[record]]
molecule = "N#Cc1c(N)nc(OCCOC(=O)[C@@H](N)Cc2ccccc2)c(C#N)c1-c1ccccc1 [Example 15, monohydrochloride monohydrate]"
value_reported = "89%"

[[record]]
molecule = "COc1nc(N)c(C#N)c(Cc2ccccc2)c1C#N [Example 151]"
value_reported = "71%"

[[record]]
molecule = "COc1nc(N)c(C#N)c(C2CCCCO2)c1C#N (stereo not drawn) [Example 6]"
value_reported = "65%"

[[record]]
molecule = "C#CCOc1nc(N)c(C#N)c(-c2ccccc2F)c1C#N [Example 11]"
value_reported = "87%"

[[record]]
molecule = "COc1nc(NC(C)=O)c(C#N)c(-c2ccccc2F)c1C#N [Example 58]"
value_reported = "93%"


[ask] In one line, give reported inhibition in vivo at 10 mg/kg of the entry N#Cc1c(N)nc(OCC(F)F)c(C#N)c1-c1ccccc1F [Example 12] .
[reply] 77%

[ask] In one line, give reported inhibition in vivo at 10 mg/kg of the entry COc1nc(N)c(C#N)c(-c2ccccc2F)c1C#N [Example 3] .
[reply] 97%

[ask] In one line, give reported inhibition in vivo at 10 mg/kg of the entry COc1nc(N)c(C#N)c(CC2CCCCC2)c1C#N [Example 150] .
[reply] 81%

[ask] In one line, give reported inhibition in vivo at 10 mg/kg of the entry COc1nc(N)c(C#N)c(-c2ccc(N)cc2)c1C#N.Cl.O [Example 20, monohydrochloride monohydrate] .
[reply] 86%

---

Reported melting point values for the following compounds.

[[record]]
compound = "COC(=O)CNc1nc(OC)c(C#N)c(-c2ccccc2)c1C#N [Example 363]"
readout_kind = "melting point"
value_reported = "140 to 141 °C"

[[record]]
compound = "N#Cc1c(N)nc(Oc2ccccc2)c(C#N)c1-c1ccccc1 [Example 194]"
readout_kind = "melting point"
value_reported = "202 °C"

[[record]]
compound = "COc1nc(N)c(C#N)c(-c2cccc(C#N)c2)c1C#N [Example 49]"
readout_kind = "melting point"
value_reported = "298 to 299 °C"

[[record]]
compound = "N#Cc1c(N)nc(N)c(C#N)c1-c1ccccc1 [Example 41]"
readout_kind = "melting point"
value_reported = "> 300 °C"

[[record]]
compound = "CSc1nc(O)c(C#N)c(-c2cccs2)c1C#N [Example 23]"
readout_kind = "melting point"
value_reported = "245 °C (dec.)"

[[record]]
compound = "COc1nc(N)c(C#N)c(C2CCOC2)c1C#N (centres unmarked) [Example 163]"
readout_kind = "melting point"
value_reported = "205 to 206 °C"


[ask] In one line, give reported melting point of the entry COc1nc(NC(C)=O)c(C#N)c(-c2c(F)cccc2F)c1C#N [Example 63] .
[reply] 200 to 201 °C

[ask] In one line, give reported melting point of the entry CSc1nc(NS(C)(=O)=O)c(C#N)c(-c2ccsc2)c1C#N [Example 45] .
[reply] > 250 °C

---

READOUT_KIND: melting point

Solved entries:
[[record]]
compound = "N#Cc1c(N)nc(Cl)c(C#N)c1-c1ccccc1 [Example 9]"
value_reported = "> 300 °C"

[[record]]
compound = "COc1nc(N(C)C)c(C#N)c(-c2ccccc2)c1C#N [Example 361]"
value_reported = "179 to 180 °C"

[[record]]
compound = "N#Cc1c(N)nc(O)c(C#N)c1-c1ccc(N)cc1 [Example 21]"
value_reported = "> 300 °C"

[[record]]
compound = "CSc1nc(N)c(C#N)c(C)c1C#N [Example 75]"
value_reported = "246 to 247 °C"


[ask] In one line, give reported melting point of the entry COc1nc(NC(=O)COc2ccccc2)c(C#N)c(-c2ccccc2F)c1C#N [Example 398] .
[reply] 205 to 206 °C
